Would you mind telling me the reported TGI of each entry?
Tested on: SK-OV-3 ovarian
Assay: NCI tumour cell line growth inhibition, 48 h

Solved cases (3 shown):
compound: O=C1NC(=O)C(c2c[nH]c3cc(Br)ccc23)=C1c1cnc[nH]1
TGI: > 100 µM
//
compound: Cc1ccc(N2CN3OC(=O)N(c4ccccc4)[C@@]3(c3ccccc3)C2)cc1
TGI: > 100 µM
//
compound: CCn1c(=O)nc2n(-c3ccccc3)c3ccccc3nc-2c1=O
TGI: > 100 µM

Below are some compounds; for each one, tell me its TGI.
1. COC(=O)[C@]1(c2cc3ccccc3[nH]2)CC2CN(C(=O)OCc3ccccc3)C1C=C2OC (stereo partly specified)
2. C[N+]1([O-])CCC(O)(C2CC2)CC1 (stereo unspecified)
3. CC1NOC(=O)C1N=Nc1ccccc1Br (stereo unspecified)

1: > 100 µM; 2: > 100 µM; 3: 99 µM

* * *

System: CCRF-CEM leukemia
Assay: NCI tumour cell line growth inhibition, 48 h
Criterion: TGI meeting or surpassing 30 µM. Met: label 1. Not met: label 0.

molecule: O=C1CSC2=NC3=C(CSC/C3=C\c3ccc(Cl)cc3)C(c3ccc(Cl)cc3)N12 (stereo not given)
target-desc: CCRF-CEM leukemia
class-name: label 1
//
molecule: CCCNC1=C(C)C(=O)C2=C(C1=O)[C@H](COC(N)=O)[C@]1(OC)[C@@H]3N[C@@H]3CN21
target-desc: CCRF-CEM leukemia
class-name: label 1
//
molecule: CCOC(=O)C(=Cc1ccccc1Cl)C(=O)OCC
target-desc: CCRF-CEM leukemia
class-name: label 0
//
molecule: O=C(Nc1c(O)[nH]c(=S)[nH]c1=O)c1ccco1
target-desc: CCRF-CEM leukemia
class-name: label 1
//
molecule: C[C@@H](c1ccccc1)C(CC#N)[C@H]1CCC[C@]1(O)C#Cc1ccc2c(c1)OCO2 (stereo not given in full)
target-desc: CCRF-CEM leukemia
class-name: label 1

Tell me whether TGI is at least 30 µM here: Nc1nc(N)c2ncn(-c3ccc(Br)cc3)c2n1
label 1

Tell me whether TGI is at least 30 µM here: C(CCCCc1nnc(N2CCOCC2)o1)CCCc1nnc(N2CCOCC2)o1
label 1

Tell me whether TGI is at least 30 µM here: CCOC(=O)C1=C(C)NC(C)=C(C(=O)OCC)C1c1ccc(Cl)cc1
label 0

Tell me whether TGI is at least 30 µM here: CC(=O)Nc1ccccc1S(=O)(=O)c1ccccc1
label 1

Tell me whether TGI is at least 30 µM here: CC1(C)O[C@@H](CC/C=C/CO)[C@H](CC/C=C/CO)O1
label 1

* * *

Test system: SK-MEL-2 melanoma
Assay: NCI tumour cell line growth inhibition, 48 h
property-label: TGI

molecule: Cc1ccc(NCCN(C)C)c2c(=O)c3cc(O)ccc3oc12
TGI: 35.4 µM

Below are some molecules; for each one, tell me its TGI.
1. CC(C)(C)C(=O)OCCNc1nc(-c2ccccc2)nc2ccccc12
2. O=C1CCC/C=C\C[C@H]2C=CC(=O)/C2=C/C[C@H](CCc2cccc(C(F)(F)F)c2)O1

1: > 100 µM; 2: 4.94 µM

Below are some molecules; for each one, tell me its TGI.
1. Fc1cccc(F)c1C1SCc2nc3cc4ccccc4cc3n21 (stereo unspecified)
2. COc1cc(OC)c2nc3occc3c(OC)c2c1
3. Cn1c(-c2cccc(N)c2)[n+](C)c2ccccc21
4. CCC1=C(CC)C1(C#N)[N+](=O)[O-]
5. COC(=O)Cc1c(-c2[nH]c3ccccc3c2CC(=O)OC)[nH]c2ccccc12
6. Nc1nc(/C=C\c2ccc([N+](=O)[O-])s2)nc(N2CCOCC2)n1
7. NC(=S)Nc1[nH]c(=S)nc2[nH]ccc12
8. O=C(O)CNS(=O)(=O)c1ccc(NC(=O)c2ccccc2[N+](=O)[O-])cc1

["> 100 µM", "> 100 µM", "> 100 µM", "> 100 µM", "> 100 µM", "44.7 µM", "> 100 µM", "> 100 µM"]

* * *

Tested on: NCI-H226 lung
Assay: NCI tumour cell line growth inhibition, 48 h
Where a SMILES comes first, the peptide text is derived from it. [ ]: non-standard residue; d: D form. The star is where a group is joined. ξ: configuration not given here. ξD = NC(CC(=O)O)C(=O)O; Boc = CC(C)(C)OC(=O)*; Aib = CC(C)(N)C(=O)O; OtBu = CC(C)(C)O*
property-label: TGI

molecule: CC(=O)Nc1ccccc1S(=O)(=O)c1ccccc1
TGI: > 100 µM

molecule: Nc1nc(N)c2nc(CNc3ccc(C(=O)NC(CCC(=O)O)C(=O)O)cc3F)cnc2n1 (stereo unspecified)
TGI: > 100 µM

molecule: C=Cc1c(C)c(O)cc2c1-c1ccc(O)c(C)c1CC2
TGI: 43 µM

molecule: COc1cc(/C=C2\CCC/C(=C\c3ccc(OC(=O)CCCCC4CCSS4)c(OC)c3)C2=O)ccc1OC(=O)CCCCC1CCSS1 (stereo unspecified)
TGI: > 100 µM

molecule: CCn1nc(-c2ccc(C(=O)OC)cc2)nc2c(=O)n(C)c(=O)nc1-2
TGI: 2.69 µM

Below are some molecules; for each one, tell me its TGI.
1. CCC1=C(CC)C1(C#N)[N+](=O)[O-]
2. COC(=O)C(C)(C)NC(=O)C(C)(C)NC(=O)C(CC(=O)OC(C)(C)C)NC(=O)OC(C)(C)C (stereo unspecified) (Boc-[ξD](OtBu)-[Aib]-[Aib]-OMe)
3. c1ccc(C2N=NN(c3ccccc3)C2N2CCCCC2)cc1 (stereo unspecified)
4. O=C(CSc1ncnc2nc[nH]c12)c1ccccc1
5. OCn1nc2c(C3OCCO3)cc3ccccc3n2c1=S

1. > 100 µM
2. > 100 µM
3. > 100 µM
4. > 100 µM
5. > 100 µM

For COC1(OC)CC2CCCCC2=C(C)N1S(=O)(=O)c1ccccc1 (stereo unspecified) , what is its reported TGI?
> 100 µM

* * *

Would you mind telling me the reported TGI of each entry?
Tested on: SF-539 CNS
Test: NCI tumour cell line growth inhibition, 48 h

Solved cases (3 shown):
molecule: CCN(CC)CCNC(=O)c1cc2cc(NC(=O)c3cc4cc(N)ccc4[nH]3)ccc2[nH]1
TGI: 85.3 µM

molecule: COc1ccc(NC(=S)Nc2ccccc2)cc1
TGI: > 100 µM

molecule: CC1=C(Cc2ccccc2)C(Cc2ccccc2)=C(C)S1=O
TGI: > 100 µM

Below are some molecules; for each one, tell me its TGI.
1. O=C1CCc2c(Oc3ccc4c(c3)[C@H]3[C@@H](O4)[C@@H]3c3nc4ccc(C(F)(F)F)cc4[nH]3)ccnc2N1
2. COc1ccc2cc1Oc1ccc(cc1)CC1c3cc(OC)c(cc3CCN1C)Oc1c(OC)c(OC)cc3c1C(C2)N(C)CC3 (stereo not given)
3. CC(=O)OC(C)(C)C1O[C@@]23OC1C[C@@H](C)[C@@H]2[C@@]1(C)CC[C@@]24C[C@@]25CC[C@H](OC2OCC(O)C(O)C2O)C(C)(C)[C@@H]5CCC4[C@]1(C)[C@H]3O (stereo not given in full)
4. CC(=O)/C(=C/n1ccc(=O)[nH]c1=S)C(=O)Nc1ccccc1C
5. C=Cc1c(C)c(O)cc2c1-c1ccc(O)c(C)c1CC2
6. CCN(CC)c1ccc2cc3ccc(=[N+](CC)CC)cc-3oc2c1

> 100 µM
19.5 µM
12 µM
> 100 µM
29.3 µM
5.12 µM

What TGI appears in the records for this molecule with SF-539 CNS? COC(=O)c1c(C)c2n(c1C)C(=O)C(c1ccccc1)=C2
> 100 µM

* * *

Tested on: UACC-257 melanoma
Experiment: NCI tumour cell line growth inhibition, 48 h
Would you mind telling me the reported TGI of each entry?

compound: CC1(C)CC(=O)c2c(nc3c4c([nH]c(-c5ccc([N+](=O)[O-])cc5)c24)CC(C)(C)C3)C1
target-desc: UACC-257 melanoma
TGI: > 100 µM
--
compound: NCCNC1=CC(=O)c2nc3ccccc3c3ccnc1c23
target-desc: UACC-257 melanoma
TGI: > 36.7 µM
--
compound: CC1(C)O[C@@H](CC/C=C/CO)[C@H](CC/C=C/CO)O1
target-desc: UACC-257 melanoma
TGI: > 100 µM

Below are some compounds; for each one, tell me its TGI.
1. C=C(C)c1nc(C#N)c(N)o1
2. C[C@]12CCC(=O)C[C@H]1CCC(O)[C@@H]2Br (some centres undefined)
3. COc1ccc(-c2nc(N3CCCC3)no2)cc1
4. N#CC1=C(N)OC2=C(CCCc3ccccc32)C1c1ccc([N+](=O)[O-])cc1 (centres undefined)

["> 100 µM", "> 100 µM", "> 100 µM", "32.4 µM"]

Each recorded value in this set is attributed to PubChem BioAssay (NCI).
